target-under-test: T1, human C5 (human, UniProt P01031 19-673; P01031 678-1676, Beta and alpha chains are disulfide-linked and the protein is glycosylated.)
T1 construct: Either in-house recombinant C5 or plasma derived C5 (CALBIOCHEM) was used; also called recombinant human C5; plasma derived human C5
assay-details: Biacore, captured antibody, pH 7.4, 37 C;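 further: biacore binding response of anti-C5 antibody light chain variants captured on chip with human C5 injected, ACES running buffer containing 1.2 mM CaCl₂, parent light chain antibody set to 100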
Recorded % binding (parent = 100) values for a group of binders are listed next.
Numeric only. Scale: %

Example cases with answers are listed next.
CFP0015 15L 91D (antibody, V domains shown) VH: QVQLLESGGGLVQPGGSLRLSCAASGFTFSSYAMSWVRQAPGKGLEWVSAISGSGGSTYYADSVKGRFTISRDNSKNTLYLQMNSLRAEDTAVYYCARGDQIWYDQWYYFDMWGQGTLVTVSS VL: DIQMTQSPSSLSASVGDRVTITCRASQSIEDDLAWYQQKPGKAPKLLIYEASNLQSGVPSRFSGSGSGTDFTLTISSLQPEDFATYYCQQDDSSPLTFGQGTKVEIK : 20.4
CFP0021 21L 50Q (antibody, V domains shown) VH: QVQLVESGGGLVQPGGSLRLSCAASGFTFSDHYMDWVRQAPGKGLEWVGRTRNKANSYTTEYAASVKGRFTISRDDSKNSLYLQMNSLKTEDTAVYYCARTGMMYWGIFDVWGQGTLVTVSS VL: DIQMTQSPSSLSASVGDRVTITCRASQSIEDDLAWYQQKPGKAPKLLIYQASTLQSGVPSRFSGSGSGTDFTLTISSLQPEDFATYYCQQHDSYPLTFGQGTKVEIK : 61.1
CFP0021 21L 91R (antibody, V domains shown) VH: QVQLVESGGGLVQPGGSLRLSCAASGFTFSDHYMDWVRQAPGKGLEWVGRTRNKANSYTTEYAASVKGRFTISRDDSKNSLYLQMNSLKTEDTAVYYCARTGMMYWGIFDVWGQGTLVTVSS VL: DIQMTQSPSSLSASVGDRVTITCRASQSIEDDLAWYQQKPGKAPKLLIYHASTLQSGVPSRFSGSGSGTDFTLTISSLQPEDFATYYCQQRDSYPLTFGQGTKVEIK : 1.5
CFP0015 15L 91E (antibody, V domains shown) VH: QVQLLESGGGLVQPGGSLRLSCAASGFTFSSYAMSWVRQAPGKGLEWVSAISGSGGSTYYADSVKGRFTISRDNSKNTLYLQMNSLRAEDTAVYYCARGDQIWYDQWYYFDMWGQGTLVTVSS VL: DIQMTQSPSSLSASVGDRVTITCRASQSIEDDLAWYQQKPGKAPKLLIYEASNLQSGVPSRFSGSGSGTDFTLTISSLQPEDFATYYCQQEDSSPLTFGQGTKVEIK : 30.1

Continue with the binder presented below.
Value of measured % binding (parent = 100) for the entry CFP0021 21L 50D (antibody, V domains shown) VH: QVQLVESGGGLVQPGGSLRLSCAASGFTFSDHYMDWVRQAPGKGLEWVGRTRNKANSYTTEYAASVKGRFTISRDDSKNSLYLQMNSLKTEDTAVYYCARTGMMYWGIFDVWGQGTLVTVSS VL: DIQMTQSPSSLSASVGDRVTITCRASQSIEDDLAWYQQKPGKAPKLLIYDASTLQSGVPSRFSGSGSGTDFTLTISSLQPEDFATYYCQQHDSYPLTFGQGTKVEIK : 53
